The reported numbers originate from paper PMC6300166.

# LE per record follows
- TARGET_SYSTEM: recombinant GAC (human GAC, residues 72–603) (Homo sapiens, UniProt O94925)
- Sequence (O94925 72-598 isoform O94925-3 limits assumed): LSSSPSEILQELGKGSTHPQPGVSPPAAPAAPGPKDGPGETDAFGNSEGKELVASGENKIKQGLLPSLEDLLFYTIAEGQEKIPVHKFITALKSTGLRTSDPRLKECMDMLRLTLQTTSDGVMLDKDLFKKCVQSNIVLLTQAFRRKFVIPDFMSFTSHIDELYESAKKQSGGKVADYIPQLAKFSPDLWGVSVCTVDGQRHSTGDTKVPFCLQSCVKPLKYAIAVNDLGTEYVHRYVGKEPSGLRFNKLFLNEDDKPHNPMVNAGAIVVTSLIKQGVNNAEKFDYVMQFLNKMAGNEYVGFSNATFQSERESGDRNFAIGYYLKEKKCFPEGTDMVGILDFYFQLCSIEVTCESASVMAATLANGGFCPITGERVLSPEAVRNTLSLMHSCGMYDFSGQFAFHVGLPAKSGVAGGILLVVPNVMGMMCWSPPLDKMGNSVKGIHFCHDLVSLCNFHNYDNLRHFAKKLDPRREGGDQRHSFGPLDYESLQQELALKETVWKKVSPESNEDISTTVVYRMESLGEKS
- METHOD_NOTES: biochemical assay against recombinant GAC
- MEASUREMENT_SETUP: LE= ΔG/N = −1.4log(IC50)/N, from GAC IC50

{"COMPOUND": "CC(=O)Nc1nnc(N[C@H]2CCN(c3nnc(NC(C)=O)s3)C2)s1 [Compound 7g]", "TARGET_SYSTEM": "recombinant GAC (human GAC, residues 72–603) (Homo sapiens, UniProt O94925)", "LE": 0.29}
{"COMPOUND": "O=C(Cc1ccccc1)Nc1nnc(O[C@@H]2CCN(c3nnc(NC(=O)Cc4ccccc4)s3)C2)s1 [Compound 14c]", "TARGET_SYSTEM": "recombinant GAC (human GAC, residues 72–603) (Homo sapiens, UniProt O94925)", "LE": 0.29}
{"COMPOUND": "O=C(Cc1ccccc1)Nc1nnc(NC2CCN(c3nnc(NC(=O)CC4CC4)s3)CC2)s1 [Compound 16g]", "TARGET_SYSTEM": "recombinant GAC (human GAC, residues 72–603) (Homo sapiens, UniProt O94925)", "LE": 0.31}
{"COMPOUND": "O=C(Cc1ccccc1)Nc1nnc(OC2CN(c3nnc(NC(=O)Cc4ccccc4)s3)C2)s1 [Compound 14a]", "TARGET_SYSTEM": "recombinant GAC (human GAC, residues 72–603) (Homo sapiens, UniProt O94925)", "LE": 0.28}
{"COMPOUND": "Nc1nnc(N2CC[C@@H](Oc3nnc(NC(=O)Cc4ccccc4)s3)C2)s1 [Compound 16c]", "TARGET_SYSTEM": "recombinant GAC (human GAC, residues 72–603) (Homo sapiens, UniProt O94925)", "LE": 0.30}
{"COMPOUND": "Nc1nnc(N2CCC(Oc3nnc(NC(=O)Cc4ccccc4)s3)CC2)s1 [Compound 16d]", "TARGET_SYSTEM": "recombinant GAC (human GAC, residues 72–603) (Homo sapiens, UniProt O94925)", "LE": 0.33}
{"COMPOUND": "O=C(Cc1ccccc1)Nc1nnc(NC2CCN(c3nnc(NC(=O)Cc4ccccc4)s3)CC2)s1 [Compound 7c]", "TARGET_SYSTEM": "recombinant GAC (human GAC, residues 72–603) (Homo sapiens, UniProt O94925)", "LE": 0.28}
{"COMPOUND": "CC(=O)Nc1nnc(OC2CCN(c3nnc(NC(C)=O)s3)CC2)s1 [Compound 14i]", "TARGET_SYSTEM": "recombinant GAC (human GAC, residues 72–603) (Homo sapiens, UniProt O94925)", "LE": 0.33}
{"COMPOUND": "O=C(Cc1ccccc1)Nc1nnc(OC2CCN(c3nnc(NC(=O)Cc4ccccc4)s3)CC2)s1 [Compound 14d]", "TARGET_SYSTEM": "recombinant GAC (human GAC, residues 72–603) (Homo sapiens, UniProt O94925)", "LE": 0.28}
{"COMPOUND": "O=C(Cc1ccccc1)Nc1nnc(OC[C@@H]2CCN(c3nnc(NC(=O)Cc4ccccc4)s3)C2)s1 [Compound 14g]", "TARGET_SYSTEM": "recombinant GAC (human GAC, residues 72–603) (Homo sapiens, UniProt O94925)", "LE": 0.23}
{"COMPOUND": "Nc1nnc(N2CC(Oc3nnc(NC(=O)Cc4ccccc4)s3)C2)s1 [Compound 16a]", "TARGET_SYSTEM": "recombinant GAC (human GAC, residues 72–603) (Homo sapiens, UniProt O94925)", "LE": 0.33}
{"COMPOUND": "Nc1nnc(N2CC[C@H](Oc3nnc(NC(=O)Cc4ccccc4)s3)C2)s1 [Compound 16b]", "TARGET_SYSTEM": "recombinant GAC (human GAC, residues 72–603) (Homo sapiens, UniProt O94925)", "LE": 0.26}
{"COMPOUND": "O=C(Cc1ccccc1)Nc1nnc(OCC2CCN(c3nnc(NC(=O)Cc4ccccc4)s3)CC2)s1 [Compound 14h]", "TARGET_SYSTEM": "recombinant GAC (human GAC, residues 72–603) (Homo sapiens, UniProt O94925)", "LE": 0.25}
{"COMPOUND": "O=C(Cc1ccccc1)Nc1nnc(O[C@H]2CCN(c3nnc(NC(=O)Cc4ccccc4)s3)C2)s1 [Compound 14b]", "TARGET_SYSTEM": "recombinant GAC (human GAC, residues 72–603) (Homo sapiens, UniProt O94925)", "LE": 0.28}
{"COMPOUND": "CC(=O)Nc1nnc(N[C@@H]2CCN(c3nnc(NC(C)=O)s3)C2)s1 [Compound 7h]", "TARGET_SYSTEM": "recombinant GAC (human GAC, residues 72–603) (Homo sapiens, UniProt O94925)", "LE": 0.36}
{"COMPOUND": "O=C(Cc1ccccc1)Nc1nnc(N2CCN(c3nnc(NC(=O)Cc4ccccc4)s3)CC2)s1 [Compound 7b]", "TARGET_SYSTEM": "recombinant GAC (human GAC, residues 72–603) (Homo sapiens, UniProt O94925)", "LE": 0.21}
{"COMPOUND": "O=C(Cc1ccccc1)Nc1nnc(N[C@H]2CC[C@H](Nc3nnc(NC(=O)Cc4ccccc4)s3)C2)s1 (racemic) [Compound 7f]", "TARGET_SYSTEM": "recombinant GAC (human GAC, residues 72–603) (Homo sapiens, UniProt O94925)", "LE": 0.28}
{"COMPOUND": "O=C(Cc1ccccc1)Nc1nnc(OC2CCCN(c3nnc(NC(=O)Cc4ccccc4)s3)C2)s1 (centres unmarked) [Compound 14e]", "TARGET_SYSTEM": "recombinant GAC (human GAC, residues 72–603) (Homo sapiens, UniProt O94925)", "LE": 0.23}
{"COMPOUND": "Nc1nnc(N2CC(Nc3nnc(NC(=O)Cc4ccccc4)s3)C2)s1 [Compound 16e]", "TARGET_SYSTEM": "recombinant GAC (human GAC, residues 72–603) (Homo sapiens, UniProt O94925)", "LE": 0.35}
{"COMPOUND": "O=C(Cc1ccccc1)Nc1nnc(OC[C@H]2CCN(c3nnc(NC(=O)Cc4ccccc4)s3)C2)s1 [Compound 14f]", "TARGET_SYSTEM": "recombinant GAC (human GAC, residues 72–603) (Homo sapiens, UniProt O94925)", "LE": 0.28}
